We begin with pKi values for Carbonic anhydrase 9 (Homo sapiens, UniProt Q16790), as collected from the published literature.
pKi: −log10 of the molar value.
Observed property: pKi

See these solved cases before continuing.
Compound	Assay target	Observed property	Value
NS(=O)(=O)c1ccc(C(=O)N2CCN(C(=O)c3cc4ccccc4o3)CC2)cc1	Carbonic anhydrase 9 (Homo sapiens, UniProt Q16790)	pKi	5.53
Cc1ccc(C(=O)CSc2nnc(-c3nnn(-c4ccc(S(N)(=O)=O)cc4)c3-c3ccccc3)[nH]2)cc1	Carbonic anhydrase 9 (Homo sapiens, UniProt Q16790)	pKi	6.53
NS(=O)(=O)c1ccc(C(=O)N2CCCCC2)cc1	Carbonic anhydrase 9 (Homo sapiens, UniProt Q16790)	pKi	8.51
C#CCOc1ccc([N+](=O)[O-])cc1/C=N/Cc1ccc(S(N)(=O)=O)cc1	Carbonic anhydrase 9 (Homo sapiens, UniProt Q16790)	pKi	6.67
O=C(/C=C(\O)C(=O)O)/C=C/c1ccc(NC(=O)c2ccccc2)cc1	Carbonic anhydrase 9 (Homo sapiens, UniProt Q16790)	pKi	7.90
NS(=O)(=O)c1ccc(Nc2nc(Cl)nc(Nc3ccc(F)c(Cl)c3)n2)cc1	Carbonic anhydrase 9 (Homo sapiens, UniProt Q16790)	pKi	7.67

a. Nc1nc(-c2ccc(OCCNC(=O)c3ccc(S(N)(=O)=O)cc3)cc2)cn2c(=O)n(-c3ccccc3)nc12
b. NS(=O)(=O)c1ccc(CNC(=O)CN(CCN(CCN(CC(=O)O)CC(=O)NCc2ccc(S(N)(=O)=O)cc2)CC(=O)O)CC(=O)O)cc1
Prompt line: Of a and b , which shows the smaller pKi value? Please respond with the label that marks your chosen entry.
Response line: a
(a: 5.23, b: 8.06)

I. C/C(=N\NC(=O)Nc1n[nH]c(=S)s1)c1ccc(Cl)cc1
II. CC(=O)OC[C@H]1O[C@@H](n2cc(COC(=O)c3ccc(S(N)(=O)=O)cc3)nn2)[C@H](OC(C)=O)[C@@H](OC(C)=O)[C@@H]1O[C@H]1O[C@H](COC(C)=O)[C@@H](OC(C)=O)[C@H](OC(C)=O)[C@H]1OC(C)=O
III. NNC(=O)c1nnn(-c2ccc(S(N)(=O)=O)cc2)c1-c1ccc(F)cc1
Prompt line: Task for the reader: rank each entry by its pKi, from the minimum upward. Answer by writing out the labels in the requested order.
Response line: I, III, II
(I: 5.07, III: 5.61, II: 6.89)
